Tested on: Plasmodium berghei
Test: Luciferase/luciferin-expressing antifolate-resistant parasites were used to infect a culture of HepG2 cells that were pre-incubated with compounds. Infected hepatocytes emit light due to the luciferase reaction. Assay results are presented as the percent inhibition of light emission compared to control. […]
Assay type: functional
Conditions: sporozoite, HEPG2TOX_HILL_SLOPE 11.6, HEPG2TOX_R_SQUARED 0.266, PBLUC_HILL_SLOPE 151, PBLUC_R_SQUARED 0.192, read-out: LUCIFERASE INFECTION ASSAY - IC50
testReadout: IC50 (µM)

                               smilesstring  assayresult
0  CN(CC(=O)Nc1cccc(F)c1)C(=O)c1csc(COc2ccc(Cl)cc2)n1         6.29

---

Tested on: Plasmodium berghei
Experiment: Luciferase/luciferin-expressing antifolate-resistant parasites were used to infect a culture of HepG2 cells that were pre-incubated with compounds. Infected hepatocytes emit light due to the luciferase reaction. Assay results are presented as the percent inhibition of light emission compared to control. […]
Assay type: functional
Details: sporozoite, PBLUC_HILL_SLOPE 42, PBLUC_R_SQUARED 0.63, read-out: LUCIFERASE INFECTION ASSAY - IC50
testReadout: IC50 (µM)

>>> df
                           smilesstring  quantityunit  assayresult
0  Cc1ccn2cc(C(=O)Nc3nc(C(C)C)cs3)nc2c1            µM         9.53

---

Test system: Plasmodium berghei
Assay: Luciferase/luciferin-expressing antifolate-resistant parasites were used to infect a culture of HepG2 cells that were pre-incubated with compounds. Infected hepatocytes emit light due to the luciferase reaction. Assay results are presented as the percent inhibition of light emission compared to control. […]
Assay type: functional
Details: sporozoite, HEPG2TOX_HILL_SLOPE 2.07, HEPG2TOX_R_SQUARED 0.801, PBLUC_HILL_SLOPE 1.69, PBLUC_R_SQUARED 0.513, read-out: LUCIFERASE INFECTION ASSAY - IC50
testReadout: IC50 (µM)

In [3]: df
Out[3]:
                                   molecule  assayresult
0  O=C1CC(c2ccccc2Br)c2c(ccc3ccccc23)N1 (stereo unspecified)         4.97

---

System: Plasmodium berghei
Assay: Luciferase/luciferin-expressing antifolate-resistant parasites were used to infect a culture of HepG2 cells that were pre-incubated with compounds. Infected hepatocytes emit light due to the luciferase reaction. Assay results are presented as the percent inhibition of light emission compared to control. […]
Type: functional
Conditions: sporozoite, PBLUC_HILL_SLOPE 0.389, PBLUC_R_SQUARED 0.133, read-out: LUCIFERASE INFECTION ASSAY - IC50
pIC50: −log10 of the molar value.
testReadout: pIC50

>>> print(df.to_string())
                               smilesstring  assayresult
0  CS(=O)(=O)c1nc2ccccc2n1CC(=O)c1ccc2c(c1)CCO2       < 5.00

---

System: Plasmodium berghei
Assay: Luciferase/luciferin-expressing antifolate-resistant parasites were used to infect a culture of HepG2 cells that were pre-incubated with compounds. Infected hepatocytes emit light due to the luciferase reaction. Assay results are presented as the percent inhibition of light emission compared to control. […]
Assay type: functional
Settings: sporozoite, HEPG2TOX_HILL_SLOPE 7.71, HEPG2TOX_R_SQUARED 0.351, PBLUC_HILL_SLOPE 26.6, PBLUC_R_SQUARED 0.241, read-out: LUCIFERASE INFECTION ASSAY - IC50
testReadout: IC50 (µM)

In [3]: df
Out[3]:
                               smilesstring  quantityunit  assayresult
0  CCCN(CCC)Cc1c(O)ccc2c1O/C(=C\c1ccc(OCC)cc1)C2=O            µM          7.9

Origin of the recorded values: ChEMBL document CHEMBL4483862
